System: ACHN renal
Test: NCI tumour cell line growth inhibition, 48 h; in the data active means GI50 below about 0.43 µM; inactive means the rest
Outcome codes: 1 (yes) = active, 0 (no) = inactive

{"columns": ["COMPOUND", "CATEGORY"],
 "data": [
  ["CC(=O)N[C@H](C)[C@@H](O)[C@@H](C)[C@@H]1OC(=O)/C=C/C=C(C)\\C=C\\[C@]2(C)C[C@@H](NS(C)(=O)=O)C=C[C@@H]2/C=C(C)/C=C/[C@H]1C", "1 (yes)"],
  ["COc1ccc(C(=O)/C=C/c2sc(Cl)nc2Cl)cc1", "0 (no)"],
  ["Nc1nc(N)c2c(n1)NC(c1sc(Cl)nc1Cl)CC(c1ccccc1)=N2 (stereo not given)", "0 (no)"],
  ["Cc1c2cnccc2c(C)c2c1c1cc(O)ccc1n2C(C)C", "1 (yes)"],
  ["NC(N)=NN=c1c(=O)c2ccccc2c1=O", "0 (no)"]
]}

Values from PubChem BioAssay (NCI)
